The reported numbers originate from a melting point compilation (Tetko et al.; mined from patent text by program, amines drawn as free bases though some values may be those of a salt).

resultType: melting point

CS(=O)(=O)Nc1ccc2c(c1)C(=O)C(C1CCN(CCc3ccc4nonc4c3)CC1)C2 (stereo not given) :: 214 to 217 °C
CCN(CC)CCCC1CCCN(C(=O)N2c3ccccc3NC(=O)c3csc(C)c32)C1 (stereo not given) :: 136 to 138 °C
CCC(c1ccccc1)c1n[nH]c2c1c(=O)n(-c1ccccc1)c1ncccc21 (stereo not given) :: 233 to 235 °C
O=C(O)c1ccc(C(c2ccccc2)c2ccc(Cl)cc2)cn1 (stereo not given) :: 200 to 203 °C

Could you report melting point for every entry in the following list?
1. CCOC(=O)C(CC=C1CCN(c2ccccc2)C1=O)Nc1cc(Cl)ccc1I (stereo not given)
2. CCOC(=O)OC1=C(c2cc(C)ccc2C)C(=O)N(OCOC)C12CCN(OC)CC2
3. CCc1cccc(CC)c1NC(=O)NCC(c1ccccc1)c1ccccc1

[out]
["132 to 134 °C", "109 to 111 °C", "200 to 201 °C"]

Could you report melting point for every entry in the following list?
1. COc1cc(C(C)C)c2c(c1)S(=O)(=O)N(COc1cc(-c3ccccc3)nn1C)C2=O
2. Cc1nc(N)nc(N)c1-c1cc(NS(C)(=O)=O)ccc1Cl
3. COc1ccc(CC2CCC3NCC(CO)CC3C2)cc1 (stereo not given)

[out]
126 to 128 °C
234 to 240 °C
160 to 162 °C

Could you report melting point for every entry in the following list?
1. CCN(CC)Cc1ccc2[nH]c(-c3ccccc3)cc(=O)c2c1
2. NS(=O)(=O)c1cc(Br)c2c(c1)S(=O)(=O)NC(C1CCCCC1)N2 (stereo not given)
3. CCCc1nc(SC2CCC(=CC(=O)O)CC2)c(C(=O)O)n1Cc1cc2c(cc1Cl)OCO2 (stereo not given)
4. CCC(=O)NC(Cl)C(Cl)(Cl)CCl (stereo not given)

[out]
228 to 230 °C
254 to 258 °C
168 °C
167 °C

Could you report melting point for every entry in the following list?
1. Cc1cc(Br)ccc1C1(Cn2cncn2)OCCO1
2. COCOc1ccc(OC)c(-c2ccc(C[C@H](NC(=O)c3c(Cl)cccc3Cl)C(=O)O)cc2)c1OC

[out]
1. 148 °C
2. 156 to 157 °C

---

What melting point was measured for each of the following?

O=C(c1c(F)cccc1F)n1c(-c2c(F)cccc2F)nc2ccccc21 :: 145 °C
O=C(C=Cc1cccc(Cl)c1)C=Cc1cccc(Cl)c1 :: 120 to 121 °C
Nc1cnn(CCO)c1N :: 158 to 160 °C
COc1cccc2sc(-c3ccc(C(=O)O)cc3)nc12 :: 289 to 291 °C
O=Cc1cccnc1Oc1ccc(F)cc1 :: 61 to 62 °C

[in] Need melting point, item `Cc1nc(N)c2nc(CO)n(CC(C)C)c2c1C`
[out] 231 to 234 °C

---

resultType: melting point

As a guide, the following entries are already answered.
COCC(=O)N(c1c(C)cccc1C)C1CCOC1=O (centres undefined) :: 118 to 120 °C
CCCCc1nc2cccc(CCO)c2n1Cc1ccccc1Cl :: 130 to 132 °C
COC(=O)/C=C/c1ccc(N2CCCC2=O)nc1 :: 151 to 160 °C
CC12CC(N3CCC4(CC3)OCCO4)C(O)CC1CCC1C2CCC2(C)C(O)C(N3CCC4(CC3)OCCO4)CC12 (centres undefined) :: 180 to 182 °C
CN(Cc1ccccc1)c1nc(N2CCC(N(C)C)CC2)nc2c(N3CCOCC3)ncnc12 :: 122 °C

Could you report melting point for every entry in the following list?
1. CCc1nc2c(o1)C(=O)C=C(Nc1ccc(F)cc1)C2=O
2. NS(=O)(=O)c1cc2c3c(ccc2cc1[N+](=O)[O-])N(C(=O)C(F)(F)F)CC3CCl (centres undefined)
3. O=C(OC(Cn1ccnc1)CS(=O)(=O)c1ccccc1)c1ccc(Cl)cc1Cl (centres undefined)
4. CC(C)c1cccc(C(C)C)c1NC(=O)CN1CCN(CCSc2nc3cccc(-c4cc[nH]n4)c3o2)CC1

[out]
1. 232 °C
2. 192 to 195 °C
3. 106 to 109 °C
4. 181 to 183 °C
